Tested on: EBV
Assay: Anti-EBV assay: reduction of EBV DNA synthesis (qPCR) in TPA-induced P3HR-1 cells
Conditions: P3HR-1 cells
Experimental endpoint: antiviral activity against EBV (in words)

Smiles code: Nc1ncnc2c1c(I)cn2[C@H]1CO[C@@H](CO)O1
Target of assay: EBV
Data value: potent anti-EBV activity
//
Smiles code: CNc1nc(N)nc2c1ccn2[C@H]1CO[C@@H](CO)O1
Target of assay: EBV
Data value: inactive
//
Smiles code: Nc1ncnc2c1ccn2[C@H]1CO[C@@H](CO)O1
Target of assay: EBV
Data value: inactive
//
Smiles code: Nc1ncnc2c1c(Br)cn2[C@H]1CO[C@@H](CO)O1
Target of assay: EBV
Data value: potent anti-EBV activity
